# ASSAY SYSTEM: ZFP SBS#490 (synthetic)
# Sequence (chain, as listed by the source): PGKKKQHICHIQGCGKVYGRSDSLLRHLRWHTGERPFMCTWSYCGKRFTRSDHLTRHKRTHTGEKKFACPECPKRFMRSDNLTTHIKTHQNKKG
# METHOD SUMMARY: EMSA
# CONDITION LABEL: tags: MBP fusion
pKd: −log10 of the molar value.

- BINDER: "TAGGGGGTGG (dsDNA) DNA 1: TAGGGGGTGG DNA 2: CCACCCCCTA"
  pKd: 8.82
